biological target: PLA2G4A; details: ASO; also: test concentration or dose not given here
These antisense oligonucleotides have a phosphorothioate backbone; sugars and methylation of C are not fully specified.
What remaining target (mRNA or protein) (fraction of control) was measured for each of the following?
Give bare numbers.

Here is how some sequences turned out for remaining target (mRNA or protein) (fraction of control).
- residue codes: "AAGTCGGGAGCCATAAAA"
  reported result: 0.87
- residue codes: "ATAAGTCGGGAGCCATAA"
  reported result: 0.98

Moving on to another sequence below.
Supply measured remaining target (mRNA or protein) (fraction of control) of "CCAAATAAGTCGGGAGCC" in your reply.
0.09

* * *

settings: ASO
These antisense oligonucleotides have a phosphorothioate backbone; sugars and methylation of C are not fully specified.
remaining target (mRNA or protein) (fraction of control) vs 0.6: less than gives 1.0; not less than gives 0.0.

- residue codes: "TCACAGCAGGTTGATCTC"
  category label: 0.0

Answer whether the sequence "CCACTCCCACCTCCCACC" has remaining target (mRNA or protein) (fraction of control) strictly less than 0.6
0.0

Answer whether the sequence "TGGTGGAGTGCATAAGAGGC" has remaining target (mRNA or protein) (fraction of control) strictly less than 0.6
1.0

Answer whether the sequence "CAGCGAGTACGTGACGGT" has remaining target (mRNA or protein) (fraction of control) strictly less than 0.6
0.0

Answer whether the sequence "CGTGTTGATAGTTGCAGTTC" has remaining target (mRNA or protein) (fraction of control) strictly less than 0.6
0.0

Answer whether the sequence "CTGCCTCTCTCTCCTCCG" has remaining target (mRNA or protein) (fraction of control) strictly less than 0.6
0.0

Answer whether the sequence "TTACGCTCTGACTTCTGG" has remaining target (mRNA or protein) (fraction of control) strictly less than 0.6
0.0

Answer whether the sequence "AAGGTGCTCTTCCCGCTC" has remaining target (mRNA or protein) (fraction of control) strictly less than 0.6
1.0

Answer whether the sequence "ATCGTGCGCCCTTCTTGC" has remaining target (mRNA or protein) (fraction of control) strictly less than 0.6
0.0

Answer whether the sequence "CTCATAGCAGGCCCGGAT" has remaining target (mRNA or protein) (fraction of control) strictly less than 0.6
1.0

Answer whether the sequence "GCACAGCCTGTCTTCAAA" has remaining target (mRNA or protein) (fraction of control) strictly less than 0.6
0.0

Answer whether the sequence "GCTTGAAGAAATGTTTTA" has remaining target (mRNA or protein) (fraction of control) strictly less than 0.6
0.0

Answer whether the sequence "CCTCCGCCCTCTCTTGCC" has remaining target (mRNA or protein) (fraction of control) strictly less than 0.6
0.0

Answer whether the sequence "CTGAAAGTGACAGTGTTT" has remaining target (mRNA or protein) (fraction of control) strictly less than 0.6
0.0

Answer whether the sequence "CCAACAAAACAGTCCAAA" has remaining target (mRNA or protein) (fraction of control) strictly less than 0.6
0.0

Answer whether the sequence "TTCTGTGTGTCTGTGGCA" has remaining target (mRNA or protein) (fraction of control) strictly less than 0.6
1.0

Answer whether the sequence "AATTCTGCCAGGTTGCTG" has remaining target (mRNA or protein) (fraction of control) strictly less than 0.6
0.0

Answer whether the sequence "TTGGTATCGATAGCACTACA" has remaining target (mRNA or protein) (fraction of control) strictly less than 0.6
0.0

Answer whether the sequence "TAAGAGGCCACAGCAGGCTC" has remaining target (mRNA or protein) (fraction of control) strictly less than 0.6
1.0

Values were extracted from the OligoGym collection.
